Measured %Inh, listed per entry for reference.
Tested on: TXK
condition-context: concentration: 1 μM, replicates: in singlicate; n = 1;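 note: KINOMEscan kinase panel screen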
Answer format: numeric, % implied, no suffix.

Below, 3 compounds whose answers are already recorded.
compound	%Inh [%]
O=C(NC1CCN(c2ccnc(Nc3ccc(F)cc3)n2)C1)c1cc2ccccc2s1 (stereo not drawn)	8
COC(=O)Nc1nc2cc(Oc3ccc(NC(=O)Nc4cc(C(F)(F)F)ccc4F)cn3)ccc2[nH]1.Cl.Cl	0
COc1cccc(C2=C(Nc3ccc(Cl)c(C(=O)O)c3)C(=O)NC2=O)c1	3

"O=C(Nc1cccc(-c2nn3ncccc3c2-c2ccnc(Nc3ccccc3)n2)c1)c1c(F)cccc1F" has a reported %Inh of 84

// recorded %Inh for "C[C@@H]1CC[C@@H](C(=O)Nc2ccccc2)CN1c1cc(-c2ccc3c(N)n[nH]c3c2)nc(N)n1" : 0

Form field %Inh, entry NCCCC(NC(=O)c1cc(Br)c(-c2ccnc3[nH]ccc23)s1)c1ccccc1.O=C(O)C(F)(F)F.O=C(O)C(F)(F)F (stereo not drawn) : 18

Recorded %Inh (compound "O=C(Nc1cccc(-c2nn3ccccc3c2-c2ccnc(Nc3cccc(C(F)(F)F)c3)n2)c1)c1c(F)cccc1F" ): 48

Quick note, %Inh for Cc1ccc(C)c(NC(=O)NC2CCN(c3ccnc(Nc4ccc(F)cc4)n3)C2)c1 (stereo not drawn) landed at 16

###

System: CDK8
condition-context: concentration: 1 μM, replicates: in singlicate; n = 1
readout-label: %Inh (%)
Could you give me the number in %? Just the number is fine.

Past entries and their recorded results:
compound	target-of-assay	data-value
O=C(Nc1cccc(-c2nn3ncccc3c2-c2ccnc(Nc3ccccc3)n2)c1)c1c(F)cccc1F [GSK198271]	CDK8	0
CCS(=O)(=O)c1ccc(OC)c(Nc2nccc(-c3c(-c4cccc(NC(=O)c5c(F)cccc5F)c4)nn4ncccc34)n2)c1 [GSK326180]	CDK8	16
COc1cccc(-c2ccc3c(NC(=O)C4CC4)n[nH]c3n2)c1 [SB-710903]	CDK8	50

Form field %Inh, entry Cl.Cl.NCC(C(=O)Nc1cc(Br)c(-c2ccnc3[nH]ccc23)s1)c1ccccc1 (centres unmarked) [GSK1269851] : 0

Query O=C(Nc1n[nH]c2nc(-c3ccc(O)cc3)ccc12)C1CC1 [SB-710363] yields %Inh of 0

According to the records, this compound "O=C(Nc1cccc(Oc2ccc3nc(NC(=O)C4CC4)cn3n2)c1)c1ccccc1C(F)(F)F" displays %Inh of 26

The measured %Inh associated with COc1cc(Nc2nccc(-c3c(-c4cccc(NC(=O)c5c(F)cccc5F)c4)nn4ccccc34)n2)cc(OC)c1OC [GSK323521] reads 90

The value of %Inh measured for the compound COc1cccc(NC(=O)NC2CCN(c3ccnc(Nc4cc(OC)c(OC)c(OC)c4)n3)C2)c1 (centres unmarked) [GSK1379763] turned out to be 39

###

Tested on: STK39
condition-context: concentration: 1 μM, replicates: in singlicate; n = 1
readout-label: %Inh (%)
Your answer is read as %, so omit the unit and give the number.

Input Cc1cccc(Nc2nc(N[C@H]3CCNC3)ncc2C(N)=O)c1.Cl [GSK2197149] . Output %Inh: 9

Summary for this compound, FC(F)(F)c1ccc(/C=C/c2cncnc2Nc2ccc3[nH]c(Cc4ccccc4)nc3c2)cc1 [GW709199] : %Inh is 0

Value of measured %Inh for the entry COc1cc(Nc2nccc(-c3c(-c4cccc(NC(=O)c5c(F)cccc5F)c4)nn4ncccc34)n2)cc(OC)c1OC [GSK327238] : 13

Value of %Inh reported for the compound "CCc1ccc(-c2ccc3c(c2)-c2c(cnn2C)S(=O)(=O)N3C)cc1" is 0

Measured %Inh of Nc1ncc(-c2ccc3nccc(-c4ccncc4)c3c2)cc1S(=O)(=O)N1CCOCC1 [GSK1627798] : 0

###

Test system: p38-gamma
Construct: gene MAPK12
condition-context: concentration: 1 μM, replicates: in singlicate; n = 1
readout-label: %Inh
Your reply should be a number followed by the unit it is expressed in.

compound	%Inh
Cl.Cl.NCC(NCc1ccc(-c2ccnc3[nH]ccc23)s1)c1ccccc1 (centres unmarked)	0%
Clc1ccc(-c2nn3ncccc3c2-c2ccnc(Nc3ccc4c(c3)OCCO4)n2)cc1	0%
CC(=O)Nc1nc2cnc(Nc3cc(NC(=O)c4cccc(C5(C#N)CC5)c4Cl)ccc3C)nc2s1	0%

Field %Inh (system: p38-gamma) for entry "FC(F)(F)c1ccc(/C=C/c2cncnc2Nc2ccc3[nH]c(Cc4ccccc4)nc3c2)cc1" = 35%

Reported p38-gamma %Inh for item "COc1ccc(CNC(=O)NC2CCN(c3ccnc(Nc4ccc(F)cc4)n3)CC2)cc1" was 0%

Considering "O=C(Nc1ccccc1F)NC1CCN(c2ccnc(Nc3ccc(F)cc3)n2)CC1" , its %Inh with p38-gamma was recorded as 0%

Summary: "O=C(Nc1n[nH]c2cc(-c3ccoc3)ccc12)C1CC1" , p38-gamma, %Inh = 1%

%Inh value, target or system p38-gamma, for "C[C@@H]1CC[C@@H](C(=O)Nc2ccccc2)CN1c1cc(-c2ccc3c(N)n[nH]c3c2)nc(N)n1" : 46%

###

Recorded %Inh by entry
System: CLK2
condition-context: concentration: 1 μM, replicates: in singlicate; n = 1
A number alone suffices; assume %.

Previously resolved entries follow.
compound	target-of-assay	%Inh / %
Cn1cc(-c2ccc3c(c2)CCN3C(=O)Cc2cccc(F)c2)c2c(N)ncnc21	CLK2	0
Cc1ccc(C(=O)N2CC[C@@H](O)C2)cc1-n1c(C)cc(OCc2ccc(F)cc2F)c(Br)c1=O	CLK2	0
COc1cc(Nc2nccc(N3CCC(NC(=O)c4cc5ccccc5s4)C3)n2)cc(OC)c1OC (stereo not shown)	CLK2	0
CCc1ccc(-c2ccc3c(c2)-c2c(cnn2C)S(=O)(=O)N3C)cc1	CLK2	13
COc1ccc(CNC(=O)NC2CCN(c3ccnc(Nc4ccc(F)cc4)n3)CC2)cc1	CLK2	0
Cn1cc(-c2[nH]c3cc(NC(=O)[C@H](N)C4CCCCC4)cc4c3c2C=NNC4=O)cn1	CLK2	16

So the reported %Inh for "Clc1ccc(-c2nn3ncccc3c2-c2ccnc(Nc3ccc4c(c3)OCCO4)n2)cc1" , on CLK2, turned out to be 0

Record for "CC(C)c1nc(-c2cccc(NS(=O)(=O)c3c(F)cccc3F)c2F)c(-c2ccnc(Nc3ccc(N4CCOCC4)nc3)n2)s1" under target or system CLK2: %Inh reported as 0

# Cl.Cl.NCC(C(=O)Nc1cc(Br)c(-c2ccnc3[nH]ccc23)s1)c1ccccc1 (stereo not shown) with CLK2: %Inh is 100

###

System: BIKE
Construct: gene BMP2K
condition-context: concentration: 1 μM, replicates: in singlicate; n = 1
Entries and their %Inh
# number only, unit % dropped from output

compound	%Inh, %
O=C(Nc1n[nH]c2cc(-c3ccoc3)ccc12)C1CC1	35
COc1ccc(CNC(=O)NC2CCN(c3ccnc(Nc4ccc(F)cc4)n3)CC2)cc1	0
CCc1ccc(-c2ccc3c(c2)-c2c(cnn2C)S(=O)(=O)N3C)cc1	0

Reported %Inh for NCCCC(NC(=O)c1cc(Br)c(-c2ccnc3[nH]ccc23)s1)c1ccccc1.O=C(O)C(F)(F)F.O=C(O)C(F)(F)F (stereo not drawn) was 97.9

Consider "Cc1cccc(NC(=O)Nc2ccc(Oc3ncnc4ccn(C)c34)cc2)c1" . Its measured %Inh is 10

Quick note, %Inh for "Cl.c1ccc(-c2ccc3c(Nc4ccc5[nH]ncc5c4)ccnc3c2)nc1" landed at 18

Per the record, Cl.Cl.NCC(NC(=O)c1cc(-c2ccccc2)c(-c2ccnc3[nH]ccc23)s1)c1ccccc1 (stereo not drawn) has %Inh of 79

// %Inh value for "CSc1cccc2c(-c3ccncn3)c(-c3ccc(F)cc3)nn12" : 8

For "COC(=O)Nc1nc2cc(Oc3ccc(NC(=O)Nc4cc(C(F)(F)F)ccc4F)cn3)ccc2[nH]1.Cl.Cl" the compound record lists %Inh as 1

###

Test system: WNK2
condition-context: concentration: 1 μM, replicates: in singlicate; n = 1
# binarize %Inh: threshold 8% inclusive, high side true (1), low side false (0)

compound	group
Cc1ccc(C(=O)Nc2ccc(Nc3ccnc4cc(-c5nccs5)ccc34)cc2O)cc1.Cl	true (1)
Nc1ncnc2c1nc(-c1ccccc1)n2-c1ccccc1	false (0)
CCc1ccc(-c2ccc3c(c2)-c2c(cnn2C)S(=O)(=O)N3C)cc1	false (0)
Cl.Cl.NCC(C(=O)Nc1cc(Br)c(-c2ccnc3[nH]ccc23)s1)c1ccccc1 (stereo not drawn)	true (1)

Shift focus to the following entry.
Ask | Check the entry "COc1cc(Nc2ncc3c(C)nc(-c4cc5ccccc5[nH]4)n3n2)cc(OC)c1OC" : does %Inh equal or exceed 8%?
Reply | false (0)

###

System: HASPIN
Construct: gene GSG2
condition-context: concentration: 1 μM, replicates: in singlicate; n = 1
Measured %Inh accompanies every entry in the list below.

Field: example entries. Status: answers known.
molecule	readout-label	data-value
Cc1ccc(F)c(C(=O)Nc2cccc(-c3nn4ccccc4c3-c3ccnc(Nc4cccc(F)c4)n3)c2)c1F [GSK361061]	%Inh	1%
Cl.c1ccc(-c2ccc3c(Nc4ccc5[nH]ncc5c4)ccnc3c2)nc1 [GW440137]	%Inh	6%
COc1cc2c(cc1OCCN1CCNCC1)ncc1c3ccc(C#N)cc3[nH]c21	%Inh	93.5%
Cl.Cl.NCC(C(=O)Nc1cc(Br)c(-c2ccnc3[nH]ccc23)s1)c1ccccc1 (centres unmarked) [GSK1269851]	%Inh	97.6%
CN1CCN(Cc2cccc(-c3ccc4c(Nc5ccc(Oc6ccccc6)cc5)ccnc4c3)c2)CC1 [GW578342]	%Inh	17%

Per the records, this molecule ( COc1cc(Nc2nccc(-c3c(-c4cccc(NC(=O)c5c(F)cccc5F)c4)nn4ncccc34)n2)cc(OC)c1OC [GSK327238] ) has %Inh equal to 0%

The molecule identified as Nc1ncc(-c2cccnc2)c2scc(-c3ccc4c(c3)CCN4C(=O)Cc3ccccc3)c12 [GSK683281] registered its %Inh at 0%

Looking up "Cn1cc(-c2[nH]c3cc(NC(=O)[C@H](N)C4CCCCC4)cc4c3c2C=NNC4=O)cn1" , I see its %Inh listed as 52%

For reference, reported %Inh for NCCCC(NC(=O)c1cc(Br)c(-c2ccnc3[nH]ccc23)s1)c1ccccc1.O=C(O)C(F)(F)F.O=C(O)C(F)(F)F (centres unmarked) [GSK1287544] stands at 95.7%

Lab note: measured %Inh of C[C@@H](Oc1cc(-n2cnc3cc(-c4ccnc(NCCS(C)(=O)=O)c4)ccc32)sc1C(N)=O)c1ccccc1Cl [GSK907232] was 26%

%Inh measured on O=c1[nH]cc(-c2ccc(N3CCOCC3)cc2)c2sc(-c3cn[nH]c3)cc12 [GSK2276055] = 79%
